# PROTOCOL_NOTES: BSK_3C_uPAR: BioMAP Diversity Plus: 3C Assay for Urokinase-type plasminogen activator receptor (uPAR) Biomarker Activity (AID 2282998)
# CONDITION_INFO: BioMAP 3C HUVEC, uPAR biomarker ELISA; actives raise or lower the signal
Active and inactive are the calls of the source. The calls were made as follows: active = hit-call score of the fitted dose curve at least 0.9, where 1 is the maximum; inactive = score below 0.9.
Outcome codes: y (active), n (inactive)

1) COc1ccc2c(c1)c(CC(=O)O)c(C)n2C(=O)c1ccc(Cl)cc1 = n
2) Oc1ccc2c(c1)OC[C@@H](N1CCC(O)(c3ccc(F)cc3)CC1)[C@H]2O = n
3) NCC1(Cc2noc(=O)[nH]2)CCCCC1 = n
4) CCCCCCCCCCC = n
5) FC(F)(F)C(F)(F)C(F)(F)C(F)(F)C(F)(F)C(F)(F)CCI = n
6) CCCCCCCCCCCCCCCC = n
7) CC(=O)OC/C=C(\C)CCC=C(C)C = n
8) Nc1nc(N)c2nc(CNc3ccc(C(=O)N[C@@H](CCC(=O)O)C(=O)O)cc3)cnc2n1 = n
9) CN1CCN(Cc2cc(-c3ccc4[nH]c(=O)oc4c3)co2)[C@@H](c2ccc(F)cc2)C1 = y
10) CC(=O)C(C)=CC1C(C)=CCCC1(C)C (stereo not given) = n
11) CC(CO)OC(C)CO (stereo not given) (tested in a mixture with another compound) = n
12) Oc1ccc2ccccc2c1N=Nc1ccccc1 = n
13) Cc1oc(-c2ccccc2)nc1CCOc1cccc2c1ccn2CCC(=O)O = n
14) CC=Cc1ccc(O)c(OC)c1 = n
15) COc1ccc(C)cc1N = n
16) Cc1ccc(N(C)C)cc1 = n
17) CCCCCCCCCCO = n
18) C=CCc1ccc(O)c(OC)c1 = n
19) COc1cc(-c2nc(NC(=O)c3cc4cc(C)cc(C)c4n3CC(=O)O)sc2CCC2CCCCC2)c(OC)cc1Cl = y
20) CCCCOC(=O)CCCCCCCCC(=O)OCCCC = n
21) OC[C@@H](O)[C@@H](O)[C@H](O)[C@H](O)CO = n
22) CCCCCCCCCCCC(=O)OC = n
23) CCOC(=O)CCC(=O)OCC = n
24) CCCCCCCC=O = n
25) CCNc1cccc(C)c1 = n

* * *

# Read-out: Glutathione S-Transferase (GSTA2), GSTA2 (gene 2939)
# PROTOCOL_NOTES: LTEA_HepaRG_GSTA2: Life Technologies and Expression Analysis (LTEA) Assay for Glutathione S-Transferase (GSTA2) using HepaRG (AID 2283497)
# CONDITION_INFO: mRNA level, 48 h; actives raise or lower the signal
# Protocol: LTEA_HepaRG is a cell based, multiplexed-readout assay that uses HepaRG, a human liver cell line, with measurements taken at 48 hours after chemical dosing on a 96-well plate.LTEA_HepaRG_GSTA2 is one of 102 assay component(s) measured in the LTEA HepaRG cell culture assay. It is a marker of Oxidative Stress.Data from the assay component LTEA_HepaRG_GSTA2 was analyzed into 1 endpoint. […]
Calls of active or inactive are those of the source. Rule for the calls: active = hit-call score of the fitted dose curve at least 0.9, where 1 is the maximum; inactive = score below 0.9.
Outcome codes: active, inactive

1) O=C(O)CCCCC(=O)O = inactive
2) CCCCCCCCCCC = inactive
3) O=C(O)Cc1ccccc1Nc1c(Cl)cccc1Cl = inactive
4) CCCCCCCCCCCCCO = inactive
5) COC(=O)c1ccc(O)cc1 = inactive
6) CCc1c(C(=O)NN2CCCCC2)nn(-c2ccc(Cl)cc2Cl)c1-c1ccc(Br)cc1 = active
7) Cc1cccc(C)c1O = inactive
8) NCCO = inactive
